- PROCEDURE TEXT: folding enthalpy; higher = less favourable; fluorescence melt of hairpins on a sequencing array, two-state fit
- COND: sodium 0.088 M
Consider the following sequences; for each one, report its folding enthalpy.
Answers are plain numbers, in kcal/mol.

Examples with their reported folding enthalpy follow.
GGAGGCGAAAGCCTTCC ((((((....))).))) ... -13.5
GCATCGCGAAAGCGCTGC (((.(((....))).))) ... -42
GATCAAATGTTGATC ((((((...)))))) ... -26.6
GATCTTGGAAACAAGACC (.(((((....))))).) ... -17.4
GATGCTGGAAACAGCATC (((((((....))))))) ... -41.2

Would you mind listing folding enthalpy for each of the following sequences?
1. GGGATCGAAAGATTCCC ((((((....))).)))
2. GCTTTGCGAAAGCAGCGC ((..(((....)))..))
3. GTGCCCGAAAGGGACAC ((((((....))).)))
4. GCGAAATTCGC ((((...))))
5. GATCTGTGGTCAGATC ((((((....))))))
6. GCGCTTGGAAACAGGTGC ((.(.((....)).).))
7. GCGGAGGGAAACCTTCGC (((.(((....))).)))

## Output
[-25, -16.7, -25.5, -18.2, -38.7, -28.5, -46.5]

----------
- PROCEDURE TEXT: melting temperature; fluorescence melt of hairpins on a sequencing array, two-state fit, raised by 9.35 °C to match UV melts
- COND: sodium 0.088 M
MEASURED QUANTITY: Tm (°C)
Answers are plain numbers, in °C.

Examples with their reported Tm follow.
GACGTGCGAAAGCAGGTC (((.(((....))).))) ... 62.4
GATACGCGAAAGCGCATC (((.(((....))).))) ... 46.4
GCGCTTGGAAACAGGTGC ((.(.((....)).).)) ... 40.6
GGAGCACGAAAGTGATCC (((.(((....))).))) ... 66.2

Would you mind listing Tm for each of the following sequences?
1. GTGGACCGAAAGGTTCAC (((.(((....))).)))
2. GTACCCACGAAAGTGTAC (((..(((....))))))

## Output
[59.8, 26.2]

----------
Consider the following sequences; for each one, report its folding enthalpy.
- PROCEDURE TEXT: folding enthalpy; higher = less favourable; fluorescence melt of hairpins on a sequencing array, two-state fit
- COND: sodium 0.088 M
Numbers only, in kcal/mol.

Examples with their reported folding enthalpy follow.
GCTCCTGGAAACAGGGGC ((.((((....)))).)) ... -39.6
GATCTTGTCCAAGATC ((((((....)))))) ... -34.2
GTTCCCGGAAACGGAAAC (((.(((....))).))) ... -24.4
GACTCCGAAAGGAACGTC ((((((....)))..))) ... -15.2
GGCAATGGAAACACTGCC ((((.((....)).)))) ... -33.2
GACATCGAAAGATGTC ((((((....)))))) ... -39.7
GCTATGCGAAAGCGGAGC (((..((....))..))) ... -26.3
GATCTGATTACAGATC ((((((....)))))) ... -40.5

Would you mind listing folding enthalpy for each of the following sequences?
1. GATCAATTGTTTGATC ((((((....))))))
2. GTGTTCCCGAAAGGGCAC (((..(((....))))))
3. GAAACCGAAAGGTTTC ((((((....))))))
4. GACATCGGAAACGATGTC (((((((....)))))))

## Output
[-35.9, -22.4, -29.4, -44]

Recorded values, source the array DNA melting data of Ke et al. (doi:10.1101/2024.01.08.574731).
